Endpoint: melting point

>  <Compound>
CC[C@H](C)[C@H](NC(=O)c1ccc(C)cc1)NC(=S)Nc1cccnc1

>  <Measured Value>
102 to 104 °C

$$$$
>  <Compound>
Cc1ccc(C(=O)NC(NC(=NC#N)Nc2cccc(F)c2)C(C)(C)C)cc1 (centres unmarked)

>  <Measured Value>
193 to 194 °C

$$$$
>  <Compound>
CC(C)(C)C(NC(=O)c1ccc(Cl)cc1)NC(=NC#N)Nc1cccc(C(F)(F)F)c1 (centres unmarked)

>  <Measured Value>
184 to 186 °C

$$$$
>  <Compound>
COc1ccccc1NC(=NC#N)NC(NC(=O)c1ccc(Cl)cc1)C(C)(Cl)Cl (centres unmarked)

>  <Measured Value>
185 to 186 °C

$$$$
>  <Compound>
CCCC(Cl)(Cl)C(NC(=O)c1ccc(Cl)cc1)NC(=NC#N)Nc1cccnc1 (centres unmarked)

>  <Measured Value>
192 to 193 °C

$$$$
>  <Compound>
COc1cccc(NC(=NC#N)NC(NC(=O)c2ccc(Cl)cc2)C(C)(C)C)c1 (centres unmarked)

>  <Measured Value>
173 to 175 °C

$$$$
>  <Compound>
CC(C)(C)C(NC(=O)c1ccc(Cl)cc1)NC(=NC#N)NCc1cccnc1 (centres unmarked)

>  <Measured Value>
188 to 189 °C

$$$$
>  <Compound>
N#CN=C(Nc1cccnc1)NC(NC(=O)c1ccc(Cl)cc1)C1CCCCC1 (centres unmarked)

>  <Measured Value>
190 to 192 °C

$$$$
